molecular target: Ephrin type-A receptor 7 (Homo sapiens, UniProt Q15375)
Sequence (Q15375 whole entry): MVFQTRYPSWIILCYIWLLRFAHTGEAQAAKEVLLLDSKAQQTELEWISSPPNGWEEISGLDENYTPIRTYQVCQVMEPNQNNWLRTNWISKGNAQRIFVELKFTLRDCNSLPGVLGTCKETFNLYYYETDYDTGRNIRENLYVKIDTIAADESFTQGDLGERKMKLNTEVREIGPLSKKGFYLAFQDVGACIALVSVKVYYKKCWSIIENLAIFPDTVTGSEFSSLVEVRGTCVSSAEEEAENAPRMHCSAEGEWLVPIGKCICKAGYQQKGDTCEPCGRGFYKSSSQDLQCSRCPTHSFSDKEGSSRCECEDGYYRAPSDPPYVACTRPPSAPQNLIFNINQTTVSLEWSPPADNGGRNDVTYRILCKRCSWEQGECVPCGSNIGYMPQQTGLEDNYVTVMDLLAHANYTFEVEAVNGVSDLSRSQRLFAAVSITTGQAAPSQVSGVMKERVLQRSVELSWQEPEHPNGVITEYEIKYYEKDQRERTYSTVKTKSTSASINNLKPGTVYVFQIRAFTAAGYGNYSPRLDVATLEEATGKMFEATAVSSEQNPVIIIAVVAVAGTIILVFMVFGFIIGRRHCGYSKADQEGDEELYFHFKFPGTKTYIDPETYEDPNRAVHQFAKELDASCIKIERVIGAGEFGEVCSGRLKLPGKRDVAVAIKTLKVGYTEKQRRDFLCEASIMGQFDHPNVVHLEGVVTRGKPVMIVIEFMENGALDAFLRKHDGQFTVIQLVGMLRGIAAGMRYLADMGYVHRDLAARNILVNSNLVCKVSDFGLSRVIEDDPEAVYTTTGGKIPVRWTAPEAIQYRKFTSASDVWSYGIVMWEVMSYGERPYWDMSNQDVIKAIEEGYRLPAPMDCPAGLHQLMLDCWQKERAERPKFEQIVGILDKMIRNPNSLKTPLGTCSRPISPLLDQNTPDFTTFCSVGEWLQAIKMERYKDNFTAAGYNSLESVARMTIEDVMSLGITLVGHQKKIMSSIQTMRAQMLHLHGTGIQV
testReadout: pIC50
Please keep in mind that pIC50 is minus log10 of the molar concentration; only the number is needed.

Identify the measured pIC50 of CN1C(=O)[C@@H](N2CCc3c(nn(Cc4ccccc4)c3Br)C2=O)COc2ccccc21 [TP-030-2] for Ephrin type-A receptor 7 (Homo sapiens, UniProt Q15375).
6.00

###

Target: Activin receptor type-1 (Homo sapiens, UniProt Q04771)
Sequence (Q04771 whole entry): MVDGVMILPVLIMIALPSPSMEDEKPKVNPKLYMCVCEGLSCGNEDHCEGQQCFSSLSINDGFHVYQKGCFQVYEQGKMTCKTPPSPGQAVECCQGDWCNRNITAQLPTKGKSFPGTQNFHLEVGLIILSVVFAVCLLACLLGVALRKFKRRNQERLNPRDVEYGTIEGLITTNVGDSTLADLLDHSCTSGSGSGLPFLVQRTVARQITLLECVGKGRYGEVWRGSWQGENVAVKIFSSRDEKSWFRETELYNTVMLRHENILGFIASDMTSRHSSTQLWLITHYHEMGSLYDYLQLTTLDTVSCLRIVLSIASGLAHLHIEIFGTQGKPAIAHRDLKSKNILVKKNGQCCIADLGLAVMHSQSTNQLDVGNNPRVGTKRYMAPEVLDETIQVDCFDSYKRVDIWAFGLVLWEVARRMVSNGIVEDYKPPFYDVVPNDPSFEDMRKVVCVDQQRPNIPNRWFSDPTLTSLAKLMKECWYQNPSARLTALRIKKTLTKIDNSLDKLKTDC
testReadout: pIC50
Please keep in mind that pIC50 is minus log10 of the molar concentration; only the number is needed.

Form field: reported pIC50 of `CN1C(=O)[C@@H](N2CCc3c(nn(Cc4ccccc4)c3Br)C2=O)COc2ccccc21`
6.00
